measurementNotes: Fraction unbound in rat plasma
Format: ADME, cell-free
I'd appreciate it if you could supply fraction unbound values for the items below.
Numbers only.

Use these answered entries as a reference point.
>  <structureNotation>
Cc1nc(C)c(-c2ccc(-c3ccc([C@H](C)C(=O)O)cc3Cl)cc2)nc1C(N)=O

>  <fraction unbound>
0.006

$$$$
>  <structureNotation>
Cc1nc(C)c(-c2ccc(-c3ccc(CC(=O)O)cc3Cl)cc2)nc1C(N)=O

>  <fraction unbound>
0.005

$$$$

# map each compound to its fraction unbound
1. Cc1nc(C)c(-c2ccc(-c3ccc(CC(=O)O)cc3Cl)c(Cl)c2)nc1C(N)=O
2. Cc1nc(C)c(-c2ccc(-c3ccc([C@H](C)C(=O)O)cc3Cl)c(F)c2)nc1C(N)=O

0.002
0.003
